This collection of values is drawn from patent US20250057968A1.

# system: T1, human DLL3 (ACRO, DLL3-H52H4) (human, UniProt Q9NYJ7 27-479)
# T1 construct: bought antigen of the Biacore assay; construct not described
# T1 sequence (looked up): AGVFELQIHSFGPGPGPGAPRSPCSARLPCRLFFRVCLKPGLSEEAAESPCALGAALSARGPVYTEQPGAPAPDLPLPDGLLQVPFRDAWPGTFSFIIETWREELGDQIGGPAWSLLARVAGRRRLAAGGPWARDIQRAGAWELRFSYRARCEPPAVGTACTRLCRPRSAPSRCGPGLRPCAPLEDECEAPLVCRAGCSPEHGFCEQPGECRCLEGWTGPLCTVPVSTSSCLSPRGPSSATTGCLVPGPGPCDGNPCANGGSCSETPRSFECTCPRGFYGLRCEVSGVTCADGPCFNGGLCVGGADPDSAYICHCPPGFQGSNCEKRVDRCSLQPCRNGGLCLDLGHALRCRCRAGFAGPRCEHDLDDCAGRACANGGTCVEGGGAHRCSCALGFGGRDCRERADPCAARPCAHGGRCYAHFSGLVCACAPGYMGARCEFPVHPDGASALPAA
# method: SPR (Biacore 8K), antibody captured on Protein A chip, 1:1 fit
Classification field: enter yes (1) for kon values not below 800000 M⁻¹ s⁻¹, no (0) for values below it.

Input: Hi, just wondering whether hAb100L2H3 (antibody, human IgG1, kappa, V domains shown) VH: EVQLVESGGGLVKPGGSLRLSCAASGFTFSDSGMHWIRQAPGKGLEWVAYISSGSSTIHYADTVKGRFTISRDNAKNSLYLQMNSLRAEDTAVYYCASPLYHYGRSYNAVAYWGQGTTVTVSS VL: DIQMTQSPSSLSASVGDRVTITCHASQNINVWLSWYQQKPGKIPKLLIYKASDLHTGVPSRFSGSGSGTDFTLTISSLQPEDVATYYCQQGQSYPLTFGGGTKVEIKR shows kon of 800000 M⁻¹ s⁻¹ or higher.
Output: no (0)

Input: Hi, just wondering whether hAb100L2H2 (antibody, human IgG1, kappa, V domains shown) VH: EVQLVESGGGLVKPGGSLRLSCAASGFTFSDSGMHWIRQAPGKGLEWVAYISSGSSTIHYADTVKGRFTISRDNAKNSLYLQMNSLRAEDTAVYYCASPLYYYGRSYNAVAYWGQGTTVTVSS VL: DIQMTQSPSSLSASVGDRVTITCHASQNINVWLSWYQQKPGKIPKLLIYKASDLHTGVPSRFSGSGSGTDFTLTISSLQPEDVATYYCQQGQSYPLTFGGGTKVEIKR shows kon of 800000 M⁻¹ s⁻¹ or higher.
Output: yes (1)

Input: Hi, just wondering whether Hu100 (antibody, human IgG1, kappa, V domains shown, also called hAb100L1H1) VH: EVQLVESGGGLVKPGGSLRLSCAASGFTFSDSGMHWIRQAPGKGLEWVSYISSGSSTIHYADTVKGRFTISRDNAKNSLYLQMNSLRAEDTAVYYCASPLYYYGRSYNAVAYWGQGTTVTVSS VL: DIQMTQSPSSLSASVGDRVTITCHASQNINVWLSWYQQKPGKVPKLLIYKASDLHTGVPSRFSGSGSGTDFTLTISSLQPEDVATYYCQQGQSYPLTFGGGTKVEIKR shows kon of 800000 M⁻¹ s⁻¹ or higher.
Output: yes (1)

Input: Hi, just wondering whether hAb100L1H3 (antibody, human IgG1, kappa, V domains shown) VH: EVQLVESGGGLVKPGGSLRLSCAASGFTFSDSGMHWIRQAPGKGLEWVAYISSGSSTIHYADTVKGRFTISRDNAKNSLYLQMNSLRAEDTAVYYCASPLYHYGRSYNAVAYWGQGTTVTVSS VL: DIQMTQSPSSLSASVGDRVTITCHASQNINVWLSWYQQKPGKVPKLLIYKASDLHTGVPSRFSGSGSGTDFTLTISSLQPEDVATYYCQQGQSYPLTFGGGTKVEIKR shows kon of 800000 M⁻¹ s⁻¹ or higher.
Output: yes (1)

Input: Hi, just wondering whether M100CHI (antibody, human IgG1, kappa, V domains shown, murine variable regions on human IgG1 / kappa constant regions; also called chimeric antibody of mAb100) VH: EVQLVESGGGLVKPGGSLKLSCAASGFTFSDSGMHWIRQAPEKGLEWVAYISSGSSTIHYADTVKGRFTISRDNAKNTLFLQMTSLRSEDTAMYYCASPLYYYGRSYNAVAYWGQGTSVTVSS VL: DIQMNQSPSSLSASLGDTITITCHASQNINVWLSWYQQKPGNIPKLLIYKASDLHTGVPSRFSGSGSGTGFTLTISSLQPEDIATYYCQQGQSYPLTFGGGTKLEIKR shows kon of 800000 M⁻¹ s⁻¹ or higher.
Output: yes (1)
